# measurement-notes: Measurement of pKa Value
# Format: physicochemical
# condition-notes: pKa value of monomers, measured to identify whether the structure is dissolvable in developers
# pKa per record follows
metric: pKa

compound: C=Cc1ccc(O)cc1
measured: 9.97

compound: OC(CC1CC2C=CC1C2)(C(F)(F)F)C(F)(F)F (centres unmarked)
measured: 9.67

compound: C=C(C)C(=O)O
measured: 4.58

compound: C=Cc1ccc(C(O)(C(F)(F)F)C(F)(F)F)cc1
measured: 8.96

compound: OC(C1CC2C=CC1C2)C(F)(F)C(O)(O)C(F)(F)F (centres unmarked)
measured: 8.33
